# Assay protocol: Cytotoxicity against mouse RAW264.7 cells assessed as reduction in cell viability measured after 24 hrs by CCK8 assay
# Type: toxicity, cell-based
Assay metric: CC50 at 24 h (µM)
Write the answer as a number in µM, unit excluded.

Measured CC50 at 24 h of `O=C(/C=C/c1ccc(F)cc1)c1ccccc1Cl` : 479

====

# Test system: Leishmania infantum
# Assay protocol: Antileishmanial activity Leishmania infantum promastigotes assessed as reduction in parasite growth incubated for 72 hrs by alamar blue assay
# Type: functional, organism-based
Assay metric: EC50 (µM)
Write the answer as a number in µM, unit excluded.

COc1cc2oc(=O)ccc2c(OC/C=C(\C)C/C=C/C(C)(C)OO)c1OC : 26.2
C/C(=C\COc1cc(O)cc2oc(=O)ccc12)C/C=C/C(C)(C)OO : 20.2

Query molecule follows.
Measured EC50 of `COc1cc2ccc(=O)oc2cc1OC` : 5.2

All figures here come from ChEMBL document CHEMBL5532635.
